- TEST TARGET: Aryl hydrocarbon receptor (Homo sapiens)
- TEST METHOD NOTES: ATG_Ahr_CIS: Attagene CIS-FACTORIAL HepG2 Assay for human Aryl Hydrocarbon Receptor (Ahr) (AID 2282930)
- EXPERIMENTAL SETUP: HepG2 AhR cis-factorial reporter transcription; actives raise or lower the signal
Active and inactive are the calls of the source. The calls were made as follows: active = hit-call score of the fitted dose curve at least 0.9, where 1 is the maximum; inactive = score below 0.9.
Result category, one only: Yes = active, No = inactive

{"columns": ["MOLECULE", "CATEGORY LABEL"],
 "data": [
  ["CCCCOCC(C)OCC(C)O (centres undefined)", "No"],
  ["CC(C)N1C(=O)c2ccccc2C1=O", "No"],
  ["CCC=C(C)C=O", "No"]
]}

Assay result, entry CCCCOCCOCCOCCO — outcome?
No

Assay result, entry CC1=CC(C)C(C=O)C(C)C1 (centres undefined) (tested in a mixture with another compound) — outcome?
No

Assay result, entry CC1=CCC(C(C)C)=CC1 — outcome?
No

Assay result, entry C=CC(=O)OCCCCCC — outcome?
No

Assay result, entry C=COCC1CCC(COC=C)CC1 (centres undefined) — outcome?
No

Assay result, entry CC(C)Cc1ccc(C(C)C(=O)O)cc1 (centres undefined) — outcome?
No

Assay result, entry C=C(C)C(=O)OCCOCCOC(=O)C(=C)C — outcome?
No

Assay result, entry CCCCCC(=O)O[C@]1(C(C)=O)CC[C@H]2[C@@H]3CCC4=CC(=O)CC[C@]4(C)[C@H]3CC[C@@]21C — outcome?
No

Assay result, entry ClCCOCCOCCCl — outcome?
No

Assay result, entry Nc1cc([N+](=O)[O-])ccc1C(=O)O — outcome?
Yes

Assay result, entry FC(F)(F)c1ccc(Cl)c(Cl)c1 — outcome?
No

###

- Read-out: CYP2C8 (gene 1558)
- TEST METHOD NOTES: LTEA_HepaRG_CYP2C8: Life Technologies and Expression Analysis (LTEA) Assay for CYP2C8 using HepaRG (AID 2283483)
- EXPERIMENTAL SETUP: mRNA level, 48 h; actives raise or lower the signal
The source made the active and inactive calls. How the source made its calls: active means hit-call score of the fitted dose curve at least 0.9, where 1 is the maximum; inactive means score below 0.9.
Result category, one only: TRUE for active, FALSE for inactive

Assay result, entry O=C(c1ccc(OCCN2CCCCC2)cc1)c1c(-c2ccc(O)cc2)sc2cc(O)ccc12 — outcome?
FALSE

Assay result, entry CCCCOCCOCCO — outcome?
FALSE

Assay result, entry COC(=O)c1ccc(C(=O)OC)cc1 — outcome?
FALSE

Assay result, entry CC/C(=C(\c1ccccc1)c1ccc(OCCN(C)C)cc1)c1ccccc1 — outcome?
FALSE

Assay result, entry C#C[C@]1(O)CC[C@H]2[C@@H]3CCc4cc(O)ccc4[C@H]3CC[C@@]21C — outcome?
TRUE

###

- TEST TARGET: X-box-binding protein 1 (Homo sapiens) (UniProt P17861)
- Sequence (P17861 whole entry, looked up): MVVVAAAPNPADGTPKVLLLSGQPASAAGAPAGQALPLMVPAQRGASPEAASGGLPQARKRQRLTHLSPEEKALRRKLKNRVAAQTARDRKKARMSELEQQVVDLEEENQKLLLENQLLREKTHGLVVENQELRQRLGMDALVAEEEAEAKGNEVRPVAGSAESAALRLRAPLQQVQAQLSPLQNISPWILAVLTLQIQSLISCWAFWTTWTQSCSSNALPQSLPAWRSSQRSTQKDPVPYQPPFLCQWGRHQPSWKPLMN
- TEST METHOD NOTES: ATG_Xbp1_CIS: Attagene CIS-FACTORIAL HepG2 Assay for human X-box Binding Protein 1 (XBP1) (AID 2282972)
- EXPERIMENTAL SETUP: HepG2 XBP1 cis-element reporter, Attagene multiplex; actives raise or lower the signal
Active and inactive are the calls of the source. Rule for the calls: active = hit-call score of the fitted dose curve at least 0.9, where 1 is the maximum; inactive = score below 0.9.
METRIC: outcome

{"columns": ["COMPOUND", "outcome"],
 "data": [
  ["[O-]/[N+](=N\\O)c1ccccc1", "inactive"],
  ["O=S1(=O)CC(Cl)(Cl)C(Cl)(Cl)C1", "inactive"],
  ["CC1=C(C=O)C(C)(C)CCC1", "inactive"],
  ["CC(O)CNCC(C)O (stereo not drawn)", "inactive"],
  ["O=C(C=Cc1ccccc1)OCCCc1ccccc1", "inactive"],
  ["CCC(CC)CO", "inactive"],
  ["CNC(=C[N+](=O)[O-])NCCSCc1ccc(CN(C)C)o1", "inactive"]
]}

Now let's try a different one.
Supply measured outcome of NCCN1CCNCC1 in your reply.
inactive
